assay: Plasma pharmacokinetic parameters (LC-MS/MS); details: human, plasma, oral, 2.5 mg, AUClast, total everolimus plasma; median
assayReadout: AUC(0-t)
Report the figure along with its unit, number first.

-- ask I'd like to know its AUC(0-t). The molecule in question is `CO[C@H]1C[C@@H]2CC[C@@H](C)[C@@](O)(O2)C(=O)C(=O)N2CCCC[C@H]2C(=O)O[C@H]([C@H](C)C[C@@H]2CC[C@@H](OCCO)[C@H](OC)C2)CC(=O)[C@H](C)/C=C(\C)[C@@H](O)[C@@H](OC)C(=O)[C@H](C)C[C@H](C)/C=C/C=C/C=C/1C`
-- reply 0.23 µM·h

###

experiment: Plasma pharmacokinetic parameters (LC-MS/MS); details: human, plasma, oral, 600 mg, Unbound Ribociclib T1/2, plasma, Median
assayReadout: half-life (h)
Quick note: give the figure in h, leave out the unit.

-- ask Requested field: half-life. Item: `CN(C)C(=O)c1cc2cnc(Nc3ccc(N4CCNCC4)cn3)nc2n1C1CCCC1`
-- reply 11.5

###

test: Plasma pharmacokinetic parameters (LC-MS/MS); details: human, plasma, oral, 50 mg, Tmax, total everolimus plasma; median
assayReadout: Tmax (h)
Reply with just the number (in h).

-- ask Sample `CO[C@H]1C[C@@H]2CC[C@@H](C)[C@@](O)(O2)C(=O)C(=O)N2CCCC[C@H]2C(=O)O[C@H]([C@H](C)C[C@@H]2CC[C@@H](OCCO)[C@H](OC)C2)CC(=O)[C@H](C)/C=C(\C)[C@@H](O)[C@@H](OC)C(=O)[C@H](C)C[C@H](C)/C=C/C=C/C=C/1C` — what was its Tmax?
-- reply 1.12

###

experiment: Plasma pharmacokinetic parameters (LC-MS/MS); settings: human, plasma, oral, 10 mg, T1/2, total everolimus plasma; individual patients
assayReadout: half-life (h)
Your answer is read as h, so omit the unit and give the number.

-- ask For the compound `CO[C@H]1C[C@@H]2CC[C@@H](C)[C@@](O)(O2)C(=O)C(=O)N2CCCC[C@H]2C(=O)O[C@H]([C@H](C)C[C@@H]2CC[C@@H](OCCO)[C@H](OC)C2)CC(=O)[C@H](C)/C=C(\C)[C@@H](O)[C@@H](OC)C(=O)[C@H](C)C[C@H](C)/C=C/C=C/C=C/1C` , what half-life is on record?
-- reply 22.1

###

experiment: CNS penetration: total and unbound drug concentrations in tumor regions, CSF and plasma (LC-MS/MS, equilibrium dialysis); details: human, non-enhancing tumor and plasma, oral, 70 mg
assayReadout: Kp
Enter a number only.

-- ask Recorded Kp of `CO[C@H]1C[C@@H]2CC[C@@H](C)[C@@](O)(O2)C(=O)C(=O)N2CCCC[C@H]2C(=O)O[C@H]([C@H](C)C[C@@H]2CC[C@@H](OCCO)[C@H](OC)C2)CC(=O)[C@H](C)/C=C(\C)[C@@H](O)[C@@H](OC)C(=O)[C@H](C)C[C@H](C)/C=C/C=C/C=C/1C` , please.
-- reply 0.15

###

assay: CNS penetration: total and unbound drug concentrations in tumor regions, CSF and plasma (LC-MS/MS, equilibrium dialysis); details: human, enhancing tumor, oral, Total everolimus, MED, 2.5 mg QD 5 days
assayReadout: concentration at 5 days (nM)
Enter your answer as a number in nM; do not include the unit.

-- ask I am curious: what concentration at 5 days value has been reported for `CO[C@H]1C[C@@H]2CC[C@@H](C)[C@@](O)(O2)C(=O)C(=O)N2CCCC[C@H]2C(=O)O[C@H]([C@H](C)C[C@@H]2CC[C@@H](OCCO)[C@H](OC)C2)CC(=O)[C@H](C)/C=C(\C)[C@@H](O)[C@@H](OC)C(=O)[C@H](C)C[C@H](C)/C=C/C=C/C=C/1C` ?
-- reply 5.9

###

assay: Plasma pharmacokinetic parameters (LC-MS/MS); conditions: human, plasma, oral, 400 mg, Total Ribociclib AUClast, Mean
assayReadout: AUC(0-t)
Provide a numeric answer, followed by its unit.

-- ask Would you kindly share the measured AUC(0-t) for CN(C)C(=O)c1cc2cnc(Nc3ccc(N4CCNCC4)cn3)nc2n1C1CCCC1 [Ribociclib, ribociclib] ?
-- reply 18.5 µM·h

###

assay: CNS penetration: total and unbound drug concentrations in tumor regions, CSF and plasma (LC-MS/MS, equilibrium dialysis); conditions: human, CSF, oral, Total Ribociclib concentration, Maximum, 400 mg QD 5 days
assayReadout: concentration at 5 days (nM)
Give just the number in nM; leave the unit off.

-- ask Record request: concentration at 5 days value, item `CN(C)C(=O)c1cc2cnc(Nc3ccc(N4CCNCC4)cn3)nc2n1C1CCCC1`
-- reply 216

###

experiment: CNS penetration: total and unbound drug concentrations in tumor regions, CSF and plasma (LC-MS/MS, equilibrium dialysis); details: human, CSF, oral, Total everolimus, MED, 50 mg single dose
assayReadout: concentration at 5 days (nM)
# unit: nM | format: bare number

-- ask // concentration at 5 days lookup, key: `CO[C@H]1C[C@@H]2CC[C@@H](C)[C@@](O)(O2)C(=O)C(=O)N2CCCC[C@H]2C(=O)O[C@H]([C@H](C)C[C@@H]2CC[C@@H](OCCO)[C@H](OC)C2)CC(=O)[C@H](C)/C=C(\C)[C@@H](O)[C@@H](OC)C(=O)[C@H](C)C[C@H](C)/C=C/C=C/C=C/1C`
-- reply 0.935

###

assay: CNS penetration: total and unbound drug concentrations in tumor regions, CSF and plasma (LC-MS/MS, equilibrium dialysis); settings: human, enhancing tumor, oral, Total Ribociclib concentration, Maximum, 400 mg QD 5 days
assayReadout: concentration at 5 days
Report the figure along with its unit, number first.

-- ask // returns reported concentration at 5 days for input `CN(C)C(=O)c1cc2cnc(Nc3ccc(N4CCNCC4)cn3)nc2n1C1CCCC1`
-- reply 9.9 µM

###

experiment: CNS penetration: total and unbound drug concentrations in tumor regions, CSF and plasma (LC-MS/MS, equilibrium dialysis); settings: human, non-enhancing tumor, oral, Total everolimus, MAX, 10 mg QD 5 days
assayReadout: concentration at 5 days (nM)
Quick reminder: number only, in nM, skip the unit.

-- ask Item under review: CO[C@H]1C[C@@H]2CC[C@@H](C)[C@@](O)(O2)C(=O)C(=O)N2CCCC[C@H]2C(=O)O[C@H]([C@H](C)C[C@@H]2CC[C@@H](OCCO)[C@H](OC)C2)CC(=O)[C@H](C)/C=C(\C)[C@@H](O)[C@@H](OC)C(=O)[C@H](C)C[C@H](C)/C=C/C=C/C=C/1C [Everolimus, everolimus] . Reported concentration at 5 days?
-- reply 33.3

###

experiment: Plasma pharmacokinetic parameters (LC-MS/MS); settings: human, plasma, oral, 70 mg, AUClast, total everolimus plasma; mean
assayReadout: AUC(0-t) (µM·h)
# unit: µM·h | format: bare number

-- ask Given `CO[C@H]1C[C@@H]2CC[C@@H](C)[C@@](O)(O2)C(=O)C(=O)N2CCCC[C@H]2C(=O)O[C@H]([C@H](C)C[C@@H]2CC[C@@H](OCCO)[C@H](OC)C2)CC(=O)[C@H](C)/C=C(\C)[C@@H](O)[C@@H](OC)C(=O)[C@H](C)C[C@H](C)/C=C/C=C/C=C/1C` , state its recorded AUC(0-t).
-- reply 1.29

###

assay: CNS penetration: total and unbound drug concentrations in tumor regions, CSF and plasma (LC-MS/MS, equilibrium dialysis); settings: human, enhancing tumor, oral, Total everolimus, MED, 60 mg single dose
assayReadout: concentration at 5 days

-- ask Reported concentration at 5 days, molecule `CO[C@H]1C[C@@H]2CC[C@@H](C)[C@@](O)(O2)C(=O)C(=O)N2CCCC[C@H]2C(=O)O[C@H]([C@H](C)C[C@@H]2CC[C@@H](OCCO)[C@H](OC)C2)CC(=O)[C@H](C)/C=C(\C)[C@@H](O)[C@@H](OC)C(=O)[C@H](C)C[C@H](C)/C=C/C=C/C=C/1C` : ____
-- reply 0.0304 µM

###

assay: CNS penetration: total and unbound drug concentrations in tumor regions, CSF and plasma (LC-MS/MS, equilibrium dialysis); details: human, non-enhancing tumor and plasma, oral, 60 mg
assayReadout: Kp
Lab note: record the figure alone, no unit after it.

-- ask Can you share its Kp? I mean this compound: `CO[C@H]1C[C@@H]2CC[C@@H](C)[C@@](O)(O2)C(=O)C(=O)N2CCCC[C@H]2C(=O)O[C@H]([C@H](C)C[C@@H]2CC[C@@H](OCCO)[C@H](OC)C2)CC(=O)[C@H](C)/C=C(\C)[C@@H](O)[C@@H](OC)C(=O)[C@H](C)C[C@H](C)/C=C/C=C/C=C/1C`
-- reply 0.17

###

assay: CNS penetration: total and unbound drug concentrations in tumor regions, CSF and plasma (LC-MS/MS, equilibrium dialysis); settings: human, enhancing tumor, oral, Total everolimus, MIN, 50 mg single dose;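 further: drug levels in patient tumor tissue from contrast-enhancing and non-enhancing regions sampled under MRI-guided neuronavigation, with plasma and CSF drawn during surgical resection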
assayReadout: concentration at 5 days

-- ask Looking for the measured concentration at 5 days of CO[C@H]1C[C@@H]2CC[C@@H](C)[C@@](O)(O2)C(=O)C(=O)N2CCCC[C@H]2C(=O)O[C@H]([C@H](C)C[C@@H]2CC[C@@H](OCCO)[C@H](OC)C2)CC(=O)[C@H](C)/C=C(\C)[C@@H](O)[C@@H](OC)C(=O)[C@H](C)C[C@H](C)/C=C/C=C/C=C/1C [Everolimus, everolimus] , can you help?
-- reply 51.6 nM
